All figures here come from patent US12612395B2.

tested on: GBM0308 CSCs; experiment: Dose-response killing of GBM CSCs (PI/Hoechst, Celigo cytometer); assay type: cell-based; conditions: Homo sapiens, read-out: CSC EC50 (μM), Table 7; cell line not given
Observation type: EC50
Hi, when you answer, please include the unit after the number. Thanks!

Sample answers from the record:
Lab note: COc1cc(OC)c2c(c1)O[C@@]1(c3ccc(Br)cc3)[C@H](c3ccccc3)[C@@H](C(=O)NS(=O)(=O)N3CCOCC3)[C@@H](O)[C@@]21O gave EC50 of 0.7 µM

Field EC50 (entry COc1cc(OC)c2c(c1)O[C@@]1(c3ccc(Br)cc3)[C@H](c3ccccc3)[C@@H](C(=O)NS(=O)(=O)N3CC(C)C3)[C@@H](O)[C@@]21O ) reads 0.804 µM

The recorded EC50 for COc1cc(OC)c2c(c1)O[C@@]1(c3ccc(C#N)cc3)[C@H](c3ccccc3)[C@@H](C(=O)NS(=O)(=O)N(C)C)[C@@H](O)[C@@]21O is 0.632 µM

// below: EC50 requested for another molecule
// sample COc1cc(OC)c2c(c1)O[C@@]1(c3ccc(Br)cc3)[C@H](c3ccccc3)[C@@H](C(=O)NS(=O)(=O)N3CCCC3)[C@@H](O)[C@@]21O , its EC50 was 0.7 µM
